// cross-source set; read-out = IC50; system = Insulin receptor (Homo sapiens, UniProt P06213)

Here is how some molecules turned out for IC50.
Look up IC50 with Insulin receptor (Homo sapiens, UniProt P06213) for this molecule: CCOC(=O)c1c(CC)c(C(=O)OC(C)(C)C)n(C)c1C=O
12 µM

Can you check O=c1c2cc(O)c(O)cc2oc2cc(O)c(C3O[C@H](CO)[C@@H](O)[C@H](O)[C@H]3O)c(O)c12 (stereo partly specified) next?
> 10 µM

Same question for CCOC(=O)c1c(C=O)[nH]c(C(=O)OC(C)(C)C)c1CC please.
2 µM

Further cases:
Enter reported IC50 observed with Insulin receptor (Homo sapiens, UniProt P06213) for CCOC(=O)c1[nH]c(CO)c(C(=O)OCC)c1C
> 100 µM

Further, for O=C1Nc2ccc(S(=O)(=O)O)cc2C1=C1Nc2ccccc2C1=O ?
> 10 µM

Moving on to CCN(CC)C(=O)c1[nH]c(C=O)c(C(=O)N(CC)CC)c1C
> 100 µM
